Parameter: CD28 Fold change to WT CD80. Scope: all listed entries.
biological target: CD28 (Homo sapiens, UniProt P10747); experiment: Flow binding to Jurkat/IL2 reporter cells (CD28); parameters: host or cells: Jurkat cells expressing an IL-2-luciferase reporter; details: Table E20; MFI at 33.3 nM relative to CD80 WT IgV-Fc
Measurement Name: CD28 Fold change to WT CD80 (fold)

{"Molecule": "H18Y/M47L/V68M/D90G (protein) VIHVTKEVKEVATLSCGYNVSVEELAQTRIYWQKEKKMVLTMMSGDLNIWPEYKNRTIFDITNNLSIMILALRPSDEGTYECVVLKYEKGAFKREHLAEVTLSVKAD", "Value Measured": 86.4}
{"Molecule": "H18Y/A26E/V68M/A71G (protein) VIHVTKEVKEVATLSCGYNVSVEELEQTRIYWQKEKKMVLTMMSGDMNIWPEYKNRTIFDITNNLSIMILGLRPSDEGTYECVVLKYEKDAFKREHLAEVTLSVKAD", "Value Measured": 2.3}
{"Molecule": "H18Y/A26E/M47L/A71G (protein) VIHVTKEVKEVATLSCGYNVSVEELEQTRIYWQKEKKMVLTMMSGDLNIWPEYKNRTIFDITNNLSIVILGLRPSDEGTYECVVLKYEKDAFKREHLAEVTLSVKAD", "Value Measured": 13.9}
{"Molecule": "M47L/V68M/A71G/D90G (protein) VIHVTKEVKEVATLSCGHNVSVEELAQTRIYWQKEKKMVLTMMSGDLNIWPEYKNRTIFDITNNLSIMILGLRPSDEGTYECVVLKYEKGAFKREHLAEVTLSVKAD", "Value Measured": 82.2}
{"Molecule": "A26E/E35D/M47L/D90G (protein) VIHVTKEVKEVATLSCGHNVSVEELEQTRIYWQKDKKMVLTMMSGDLNIWPEYKNRTIFDITNNLSIVILALRPSDEGTYECVVLKYEKGAFKREHLAEVTLSVKAD", "Value Measured": 35.3}
{"Molecule": "H18Y/E35D/A71G/D90G (protein) VIHVTKEVKEVATLSCGYNVSVEELAQTRIYWQKDKKMVLTMMSGDMNIWPEYKNRTIFDITNNLSIVILGLRPSDEGTYECVVLKYEKGAFKREHLAEVTLSVKAD", "Value Measured": 29.8}
{"Molecule": "A26E/M47L/A71G/D90G (protein) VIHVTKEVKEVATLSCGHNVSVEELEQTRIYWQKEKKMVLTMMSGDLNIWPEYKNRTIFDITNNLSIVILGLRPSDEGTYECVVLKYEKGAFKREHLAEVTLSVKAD", "Value Measured": 44.5}
{"Molecule": "H18Y/V68M/A71G/D90G (protein) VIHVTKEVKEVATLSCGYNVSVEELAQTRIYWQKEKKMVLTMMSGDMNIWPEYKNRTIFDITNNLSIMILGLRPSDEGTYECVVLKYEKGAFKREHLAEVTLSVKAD", "Value Measured": 77.8}
